The entries below are paired with their reported optical density.
- testedTarget: T1, Human ACVR2A (human, UniProt P27037 20-135, limits assumed); further: test concentration or dose not given here
- T1 construct: also called activin receptor, type II A
- T1 sequence (P27037 20-135 limits assumed): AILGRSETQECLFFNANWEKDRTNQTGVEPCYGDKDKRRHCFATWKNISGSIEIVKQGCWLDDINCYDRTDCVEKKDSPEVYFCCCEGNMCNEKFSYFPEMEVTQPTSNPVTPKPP
- experimentDescription: ELISA
experimentalReadout: optical density (OD)

{"columns": ["binder", "units", "numericReadout"],
 "data": [
  ["369_D02 (antibody, V domains shown) VH: EVQLLESGGGLVQPGGSLRLSCAASGFTFSDYSMNWVRQAPGKGLEWVSNINYNSGYTGYADSVKGRFTISRDNSKNTLYLQMNSLRAEDTAVYYCARSANWHDTALDYWGQGTLVTVSS VL: DIQMTQSPSSLSASVGDRVTITCRASQSILSYLNWYQQKPGKAPKLVIYAVTSRASGVPSRFSGSGSGTDFTLTISSLQPEDFATYYCQQSYDTPLTFGGGTKVEIK", "OD", 3.29],
  ["367_G10 (antibody, V domains shown) VH: EVQLLESGGGLVQPGGSLRLSCAASGFTFDDYGMNWVRQAPGKGLEWVSGINYNGGYTSYADSVKGRFTISRDNSKNTLYLQMNSLRAEDTAVYYCARSANWHDTALDYWGQGTLVTVSS VL: DIQMTQSPSSLSASVGDRVTITCRASQSIISYVNWYQQKPGKAPKLLIYAATSRASGVPSRFSGSGSGTDFTLTISSLQPEDFATYYCQQSYDSPLTFGGGTKVEIK", "OD", 2.12],
  ["371_G10 (antibody, V domains shown) VH: EVQLLESGGGLVQPGGSLRLSCAASGFTFSSYSMNWVRQAPGKGLEWVSGINYNGGYKSYADSVKGRFTISRDNSKNTLYLQMNSLRAEDTAVYYCARSANWHDTALDYWGQGTLVTVSS VL: DIQMTQSPSSLSASVGDRVTITCRASQSISSYVNWYQQKPGKAPKLLIYAATSRHSGVPSRFSGSGSGTDFTLTISSLQPEDFATYYCQQSDDSPLTFGGGTKVEIK", "OD", 1.65],
  ["373_D01 (antibody, V domains shown) VH: EVQLLESGGGLVQPGGSLRLSCAASGFTFDSYSMNWVRQAPGKGLEWVSGINYNSGYKSYADSVKGRFTISRDNSKNTLYLQMNSLRAEDTAVYYCARSANWHDTHLDYWGQGTLVTVSS VL: DIQMTQSPSSLSASVGDRVTITCRASQSILSYVNWYQQKPGKAPKLVIYAATSRASGVPSRFSGSGSGTDFTLTISSLQPEDFATYYCQQSYDSPLTFGGGTKVEIK", "OD", 3.23],
  ["368_A01 (antibody, V domains shown) VH: EVQLLESGGGLVQPGGSLRLSCAASGFTFSSYGMNWVRQAPGKGLEWVSNINYNGGYTSYADSVKGRFTISRDNSKNTLYLQMNSLRAEDTAVYYCARSANWHDTALDYWGQGTLVTVSS VL: DIQMTQSPSSLSASVGDRVTITCRASQSIISYLNWYQQKPGKAPKLLIYAATSRHSGVPSRFSGSGSGTDFTLTISSLQPEDFATYYCQQSYDNPLTFGGGTKVEIK", "OD", 2.99]
]}
